B1: library; a variant is named by its letters at N, in order (parent)
chain: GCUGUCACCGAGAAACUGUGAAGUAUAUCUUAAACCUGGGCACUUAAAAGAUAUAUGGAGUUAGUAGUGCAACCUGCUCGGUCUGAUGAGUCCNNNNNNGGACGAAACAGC

# Variants of: B1
# protocol: normalized RNA/DNA level with ligand (relative to sTRSVctl = 100) (log10 (% of sTRSVctl)); HEK293T; ligand: cyclic di-GMP (c-di-GMP-II aptamer); ligand concentration (+) RNA-Seq: 1 mM; higher = less ribozyme self-cleavage, higher mRNA level
# condition.description: reporter: mCherry (pCS4076), ligand present: yes
readout.name: normalized RNA/DNA level with ligand (log10)
Please state the value as a number alone, without comment.

# input Look up normalized RNA/DNA level with ligand (log10) for this variant: AUCGGG
# output 1.81

# input Look up normalized RNA/DNA level with ligand (log10) for this variant: UCGUGC
# output 1.86

# input Look up normalized RNA/DNA level with ligand (log10) for this variant: CAAUAA
# output 1.52

# input Look up normalized RNA/DNA level with ligand (log10) for this variant: AUCGAU
# output 1.77

# input Look up normalized RNA/DNA level with ligand (log10) for this variant: CGAUGG
# output 1.81

# input Look up normalized RNA/DNA level with ligand (log10) for this variant: GGAUCA
# output 1.77

# input Look up normalized RNA/DNA level with ligand (log10) for this variant: UAAGGG
# output 1.73

# input Look up normalized RNA/DNA level with ligand (log10) for this variant: UUAAGC
# output 1.85

# input Look up normalized RNA/DNA level with ligand (log10) for this variant: UCCGGC
# output 1.95

# input Look up normalized RNA/DNA level with ligand (log10) for this variant: CGAUAG
# output 1.87

# input Look up normalized RNA/DNA level with ligand (log10) for this variant: UUAACC
# output 1.85

# input Look up normalized RNA/DNA level with ligand (log10) for this variant: UGGUAU
# output 1.82

# input Look up normalized RNA/DNA level with ligand (log10) for this variant: GAGCGC
# output 1.83

# input Look up normalized RNA/DNA level with ligand (log10) for this variant: UCCGCG
# output 1.89

# input Look up normalized RNA/DNA level with ligand (log10) for this variant: CCCUAC
# output 1.82

# input Look up normalized RNA/DNA level with ligand (log10) for this variant: CCCACC
# output 1.84

# input Look up normalized RNA/DNA level with ligand (log10) for this variant: UUUUGA
# output 1.89

# input Look up normalized RNA/DNA level with ligand (log10) for this variant: UCAUCG
# output 1.88

# input Look up normalized RNA/DNA level with ligand (log10) for this variant: UUCGCU
# output 1.88

# input Look up normalized RNA/DNA level with ligand (log10) for this variant: GCUUAG
# output 1.79

# input Look up normalized RNA/DNA level with ligand (log10) for this variant: UGGACG
# output 1.86

# input Look up normalized RNA/DNA level with ligand (log10) for this variant: AUUCGG
# output 1.82
